Measured values drawn from patent US20240101708A1 for this set.

Overview of reported pKd across a group of binders:
Target: T1, recombinant human RNF43 extracellular domain (human, UniProt Q68DV7 24-197)
T1 construct: extracellular domain; also called huRNF43; human RNF43 ECD
T1 sequence (looked up): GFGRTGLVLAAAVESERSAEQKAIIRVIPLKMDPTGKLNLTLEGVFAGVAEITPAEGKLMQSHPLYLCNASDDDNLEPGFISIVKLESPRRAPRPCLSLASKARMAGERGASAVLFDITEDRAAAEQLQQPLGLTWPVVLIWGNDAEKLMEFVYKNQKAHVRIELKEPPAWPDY
Test: SPR Biacore 8K; antibody captured on Protein A; RNF43 ECD analyte; 25 C
Method: Antibodies were screened for binding to recombinant human RNF43 and ZNRF3 ECDs using a Biacore® 8 k instrument (GE Life Sciences). […] Binding of recombinant human RNF43 and ZNRF3 extracellular domain to the captured antibodies was analyzed at 25° C. using a single cycle kinetics method with a flow rate of 30 μl/minute, a contact time of 180 seconds and a dissociation time of 600 seconds. […] Data were evaluated using Biacore 8K Evaluation software (GE Life Sciences). […]
Just the number, please; pKd means minus log10 of the concentration in mol/L.

RNF43-75 (antibody, V domains shown, Rat clone; VH/VL only) VH: EVQLVESGGGLVQPGRSLKLSCAASGFTFSDHYMAWVRQAPKKGLEWVASITYEGSSTYYGDSVKGRFTISRDNAKSTLYLQMNSLRSEDTATFYCARHLDYGYDYAWSFDFWGPGTMVTVSS VL: DIVLTQSPIILSVTPGETVSLSCRTSHSIGTNLHWYQQKTNESPRLLINYASQSISGIPSRFSASGSGTDFTLNINNVEFEDVASYYCQQTQRWPLTFGSGTKLEIK	8.33

// below: pKd requested for another binder
Task item: Item RNF43-117 (antibody, V domains shown, Rat clone; VH/VL only) VH: QVSLKESGPGMLQPSQTLSLTCTFSEFSLSTYGLGVGWIRQPSGKGLEWLANIWWDDDKYYNPSLKNRLTISKDTSNNQAFLKITNVDTADTATYYCARIDGRWHYFDYWGQGDRVIVSS VL: DIVLTQTPSILSATIGQSVSISCRSTQSLLDSDGNTYLYWFLQRPGQSPQRLIYLVSNLGSGVPNRFSGSGSGTDFTLKISGVEAEDLGFYYCMQGAHTPLTFGSGTKLEIK has what recorded pKd?
Reply: 7.70
